# measured.on: human melanocortin-4 receptor (human, UniProt P32245 1-332)
# Sequence (P32245 whole entry): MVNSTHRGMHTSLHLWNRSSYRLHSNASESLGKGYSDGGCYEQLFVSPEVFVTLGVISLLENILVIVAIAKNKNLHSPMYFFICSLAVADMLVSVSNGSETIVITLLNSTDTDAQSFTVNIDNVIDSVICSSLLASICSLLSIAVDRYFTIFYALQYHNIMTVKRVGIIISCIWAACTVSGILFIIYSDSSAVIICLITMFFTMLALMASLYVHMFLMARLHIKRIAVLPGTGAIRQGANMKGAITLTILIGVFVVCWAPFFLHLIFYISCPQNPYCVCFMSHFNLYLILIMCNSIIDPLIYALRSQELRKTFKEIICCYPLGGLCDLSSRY
# procedure.summary: cell-based or functional assay
Positions of bridges follow the written chain, without caps; N, C: chain ends. Non-standard residues stand in square brackets, D forms with d. dPhe(4-CN) = N#Cc1ccc(C[C@@H](N)C(=O)O)cc1; dPhe(3-Cl) = N[C@H](Cc1cccc(Cl)c1)C(=O)O; dPhe(2-Me) = Cc1ccccc1C[C@@H](N)C(=O)O; dPhe(4-F) = N[C@H](Cc1ccc(F)cc1)C(=O)O; Orn = NCCC[C@H](N)C(=O)O
Recorded EC50, cAMP, 0.1 ng/mL Doxycycline by entry

# binder, unit.info, EC50, cAMP, 0.1 ng/mL Doxycycline
records = [
    ("Ac-REN[dPhe(4-CN)]RW[Orn]-OH (lactam 2-7, also called No. 85) [Ac-Arg-cyclo(Glu-Asn-D-Phe(4-CN)-Arg-Trp-Orn)-OH]", "nM", 15),
    ("Ac-REQ[dPhe(2-Me)]RW[Orn]-NH2 (lactam 2-7, also called No. 110) [Ac-Arg-cyclo(Glu-Gln-D-Phe(2-Me)-Arg-Trp-Orn)-NH2]", "nM", 0.6),
    ("Ac-REN[dPhe(4-F)]RW[Orn]-NH2 (lactam 2-7, also called No. 69) [Ac-Arg-cyclo(Glu-Asn-D-Phe(4-F)-Arg-Trp-Orn)-NH2]", "nM", 0.25),
    ("Ac-REQ[dPhe(3-Cl)]RW[Orn]-NH2 (lactam 2-7, also called No. 38) [Ac-Arg-cyclo(Glu-Gln-D-Phe(3-Cl)-Arg-Trp-Orn)-NH2]", "nM", 2),
    ("Ac-REK[dPhe(3-Cl)]RW[Orn]-NH2 (lactam 2-7; SMILES CC(=O)N[C@@H](CCCNC(=N)N)C(=O)N[C@H]1CCC(=O)NCCC[C@@H](C(N)=O)NC(=O)[C@H](Cc2c[nH]c3ccccc23)NC(=O)[C@H](CCCNC(=N)N)NC(=O)[C@@H](Cc2cccc(Cl)c2)NC(=O)[C@H](CCCCN)NC1=O, also called No. 100) [Ac-Arg-cyclo(Glu-Lys-D-Phe(3-Cl)-Arg-Trp-Orn)-NH2]", "nM", 6),
]
